Where do the numbers come from? From paper PMC11940275.

# target entity: SARS-CoV-2 spike protein, Omicron BA.2 (on SmBiT-BA.2 pseudovirus) (SARS-CoV-2 Omicron BA.2)
Assign IC50 to each entry below.
Numbers only; they are read as µM.

Dear colleague, I am looking for the recorded IC50 of the following sequence: CGCAGCACCCAAGAACAAGGACTGCTTAGGATTGCGATAGGTTCGG [46-mer aptamer]
0.7

Then what about the sequence ATCCAGAGTGACGCAGCATTTCATCGGGTCCAAAAGGGGCTGCTCGGGATTGCGGATATGGACACGT [67-mer aptamer] ?
1.64

Likewise for ATCCAGAGTGACGCAGCATCGAGTGGCTTGTTTGTAATGTAGGGTTCCGGTCGTGGGTTGGACACGGTGGCTTAGT [76-mer aptamer] ?
3.61
